# TESTED_TARGET: T1, SP70 peptide epitope of the EV71 VP1 capsid protein (Enterovirus 71)
# T1 construct: 15-amino acid peptide; residues 208-222 counted on VP1
# T1 peptide: YPTFGEHKQEKDLEY
# EXPERIMENTAL_PROTOCOL: binding ELISA on SP70 peptide, OD 650 nm
// values below are reported pEC50
Just the number, please; pEC50 means minus log10 of the concentration in mol/L.

Please review the following examples before continuing.
[
  {
    "BINDER": "hEV71 HPKA (antibody, V domains shown, Variable domains only) VH: QVQLVQSGAEVKKPGASVKVSCKASGYTFTDTYIHWVRQAPGQRLEWIGKIDPANGNTKYDPKFQDKVTITRDTSASTAYMELSSLRSEDTAVYYCANSNYWFDFDYWGQGTLVTVSS VL: DIVMTQSPLSLPVTPGEPASISCRSSQSIVHSNGNTYLEWYLQKPGQSPQLLIYKVSNRFSGVPDRFSGSGSGTDFTLKISRVEAEDVGVYYCYQGSHVPYTFGGGTKVEIK",
    "pEC50": 7.17
  },
  {
    "BINDER": "chimeric D5 antibody (antibody, V domains shown, Human constant regions and murine D5 variable regions, expressed in Expi293 cells; also called chD5; cD5 CHCK) VH: EVQLQQSGAELVKPGASVKLSCTASGFNIKDTYIHWVKQRPEQGLEWIGKIDPANGNTKYDPKFQDKATITADTSSNTAYLQLSSLTSEDTAVYYCANSNYWFDFDYWGQGTTLTVSS VL: DVLMTQTPLSLPVSLGDQASISCRSSQSIVHSNGNTYLEWYLQKPGQSPKLLIYKVSNRFSGVPDRFSGSGSGTDFTLKISRVEADDVGVYYCYQGSHVPYTFGGGTKLEIK",
    "pEC50": 8.85
  },
  {
    "BINDER": "hEV71 HBKA (antibody, V domains shown, Variable domains only; pHuG1 / pHuK vectors) VH: QVQLVQSGAEVKKPGASVKVSCKASGFNIKDTYIHWVRQAPGQRLEWIGKIDPANGNTKYDPKFQDKATITADTSASTAYMELSSLRSEDTAVYYCANSNYWFDFDYWGQGTLVTVSS VL: DIVMTQSPLSLPVTPGEPASISCRSSQSIVHSNGNTYLEWYLQKPGQSPQLLIYKVSNRFSGVPDRFSGSGSGTDFTLKISRVEAEDVGVYYCYQGSHVPYTFGGGTKVEIK",
    "pEC50": 8.79
  },
  {
    "BINDER": "hEV71 HQKA (antibody, V domains shown, Variable domains only) VH: QVQLVQSGAEVKKPGASVKVSCTASGFNIKDTYIHWVKQAPGQRLEWIGKIDPANGNTKYDPKFQDKATITADTSANTAYMELSSLRSEDTAVYYCANSNYWFDFDYWGQGTLVTVSS VL: DIVMTQSPLSLPVTPGEPASISCRSSQSIVHSNGNTYLEWYLQKPGQSPQLLIYKVSNRFSGVPDRFSGSGSGTDFTLKISRVEAEDVGVYYCYQGSHVPYTFGGGTKVEIK",
    "pEC50": 8.96
  },
  {
    "BINDER": "hEV71 HMKA (antibody, V domains shown, Variable domains only; pHuG1 / pHuK vectors, Expi293 cells; behaves as an IgG monomer; also called huEV71 HMKA; EVM00) VH: QVQLVQSGAEVKKPGASVKVSCTASGFNIKDTYIHWVRQAPGQRLEWIGKIDPANGNTKYDPKFQDKATITADTSANTAYMELSSLRSEDTAVYYCANSNYWFDFDYWGQGTLVTVSS VL: DIVMTQSPLSLPVTPGEPASISCRSSQSIVHSNGNTYLEWYLQKPGQSPQLLIYKVSNRFSGVPDRFSGSGSGTDFTLKISRVEAEDVGVYYCYQGSHVPYTFGGGTKVEIK",
    "pEC50": 8.94
  }
]

Now examine the next entry.
Find the recorded pEC50 belonging to hEV71 HNKA (antibody, V domains shown, Variable domains only) VH: QVQLVQSGAEVKKPGASVKVSCKASGFNIKDTYIHWVKQAPGQRLEWIGKIDPANGNTKYDPKFQDKATITADTSASTAYMELSSLRSEDTAVYYCANSNYWFDFDYWGQGTLVTVSS VL: DIVMTQSPLSLPVTPGEPASISCRSSQSIVHSNGNTYLEWYLQKPGQSPQLLIYKVSNRFSGVPDRFSGSGSGTDFTLKISRVEAEDVGVYYCYQGSHVPYTFGGGTKVEIK and report it.
8.87

These data points were gathered from patent US20200317753A1.
